tested-system: SARS-Cov-2 3CLpro (Severe acute respiratory syndrome coronavirus 2)
assay-method-text: biochemical
measurement-parameters: Table A, class symbols, read-out: SARS-Cov-2 (IC50)
pIC50: −log10 of the molar value.
metric-name: pIC50

molecule="CN(C(=O)[C@H](CC1CC1)NC(=O)C(F)(F)F)[C@@H](CC1CC1)C(=O)N1C[C@@]2(C[C@H]1C#N)Oc1cc(Cl)cc(F)c1NC2=O [Compound 59]" tested_system="SARS-Cov-2 3CLpro (Severe acute respiratory syndrome coronavirus 2)" result="> 7.70"
molecule="CN(C(=O)[C@@H]1CC[C@@H](c2ccccc2)N1C)[C@@H](CC1CC1)C(=O)N1C[C@@]2(C[C@H]1C#N)Oc1cc(F)cc(F)c1NC2=O [Compound 153]" tested_system="SARS-Cov-2 3CLpro (Severe acute respiratory syndrome coronavirus 2)" result="6.70 to 7.70"
molecule="CN(C(=O)[C@H](CC1CC1)NC(=O)C(F)(F)F)[C@@H](CC1CC1)C(=O)N1C[C@@]2(C[C@H]1C#N)CC1(CC1)NC2=O [Compound 60]" tested_system="SARS-Cov-2 3CLpro (Severe acute respiratory syndrome coronavirus 2)" result="> 7.70"
molecule="C[C@H](NC(=O)C(F)(F)F)C(=O)N(C)[C@@H](CC1CC1)C(=O)N1C[C@@]2(C[C@H]1C#N)Oc1c(cccc1OC(F)(F)F)NC2=O [Compound 235]" tested_system="SARS-Cov-2 3CLpro (Severe acute respiratory syndrome coronavirus 2)" result="> 7.70"
molecule="CN(C(=O)[C@H](CC1CC1)NC(=O)C(F)(F)F)[C@@H](CC1CC1)C(=O)N1C[C@]2(C[C@H]1C#N)C(=O)NCc1ccccc12 (single isomer, unassigned) [Compound 122]" tested_system="SARS-Cov-2 3CLpro (Severe acute respiratory syndrome coronavirus 2)" result="> 7.70"
molecule="C[C@H](NC(=O)OC1CC1)C(=O)N(C)[C@@H](CC1CC1)C(=O)N1C[C@@]2(C[C@H]1C#N)Oc1cccnc1NC2=O [Compound 219]" tested_system="SARS-Cov-2 3CLpro (Severe acute respiratory syndrome coronavirus 2)" result="> 7.70"
molecule="CN(C(=O)[C@H](CC1CC1)NC(=O)C(F)(F)F)[C@@H](CC1CC1)C(=O)N1C[C@@]2(C[C@H]1C#N)Oc1c(F)cccc1CNC2=O [Compound 168]" tested_system="SARS-Cov-2 3CLpro (Severe acute respiratory syndrome coronavirus 2)" result="> 7.70"
molecule="CC(C)C[C@@H](C(=O)N1C[C@@]2(C[C@H]1C#N)Oc1cc(F)cc(F)c1NC2=O)N(C)C(=O)[C@H](C)NC(=O)C1(F)CC1 [Compound 71]" tested_system="SARS-Cov-2 3CLpro (Severe acute respiratory syndrome coronavirus 2)" result="> 7.70"
molecule="CN(C(=O)c1cc2c(F)cc(F)c(F)c2[nH]1)[C@@H](CC1CC1)C(=O)N1C[C@@]2(C[C@H]1C#N)Oc1cc(F)cc(F)c1NC2=O [Compound 74]" tested_system="SARS-Cov-2 3CLpro (Severe acute respiratory syndrome coronavirus 2)" result="6.70 to 7.70"
molecule="COc1cccc2[nH]c(C(=O)N(C)[C@@H](CC3CC3)C(=O)N3C[C@@]4(C[C@H]3C#N)Oc3cc(F)cc(F)c3NC4=O)cc12 [Compound 134]" tested_system="SARS-Cov-2 3CLpro (Severe acute respiratory syndrome coronavirus 2)" result="> 7.70"
molecule="CN1C(=O)[C@]2(C[C@@H](C#N)N(C(=O)[C@H](CC3CC3)N(C)C(=O)[C@H](CC3CC3)NC(=O)C(F)(F)F)C2)Oc2cc(F)cc(F)c21 [Compound 93]" tested_system="SARS-Cov-2 3CLpro (Severe acute respiratory syndrome coronavirus 2)" result="> 7.70"
molecule="C[C@@H](NC(=O)C(F)(F)F)C(=O)N(C)[C@@H](CC1CC1)C(=O)N1C[C@@]2(C[C@H]1C#N)Oc1cc(F)cc(F)c1NC2=O [Compound 83]" tested_system="SARS-Cov-2 3CLpro (Severe acute respiratory syndrome coronavirus 2)" result="6.70 to 7.70"
molecule="C[C@H](NC(=O)C(F)(F)F)C(=O)N(C)[C@@H](CC1CC1)C(=O)N1C[C@@]2(C[C@H]1C#N)Oc1c(cccc1C1CC1)NC2=O [Compound 99]" tested_system="SARS-Cov-2 3CLpro (Severe acute respiratory syndrome coronavirus 2)" result="> 7.70"
molecule="C[C@H](c1ccccc1)[C@H](NC(=O)C(F)(F)F)C(=O)N(C)[C@@H](CC1CC1)C(=O)N1C[C@@]2(C[C@H]1C#N)Oc1cccnc1NC2=O [Compound 193]" tested_system="SARS-Cov-2 3CLpro (Severe acute respiratory syndrome coronavirus 2)" result="6.70 to 7.70"
molecule="Cc1ccc(C(=O)N(C)[C@@H](CC2CC2)C(=O)N2C[C@@]3(C[C@H]2C#N)Oc2cccnc2NC3=O)[nH]c1=O [Compound 232]" tested_system="SARS-Cov-2 3CLpro (Severe acute respiratory syndrome coronavirus 2)" result="5.70 to 6.70"
molecule="CN(C(=O)[C@H](CC1CC1)NC(=O)C1(F)CC1)[C@@H](CC1CC1)C(=O)N1C[C@@]2(C[C@H]1C#N)Oc1ncccc1NC2=O [Compound 185]" tested_system="SARS-Cov-2 3CLpro (Severe acute respiratory syndrome coronavirus 2)" result="> 7.70"
molecule="CC1NC(=O)[C@]2(C[C@@H](C#N)N(C(=O)[C@H](CC3CC3)N(C)C(=O)[C@H](CC3CC3)NC(=O)C(F)(F)F)C2)Oc2ccccc21 (single isomer, unassigned) [Compound 224]" tested_system="SARS-Cov-2 3CLpro (Severe acute respiratory syndrome coronavirus 2)" result="> 7.70"
molecule="CC(C)C[C@@H](C(=O)N1C[C@]2(CCNC2=O)C[C@H]1C#N)N(C)C(=O)[C@H](C)NC(=O)C(F)(F)F [Compound 8]" tested_system="SARS-Cov-2 3CLpro (Severe acute respiratory syndrome coronavirus 2)" result="6.70 to 7.70"
molecule="C[C@H](NC(=O)C(F)(F)F)C(=O)N(C)[C@@H](Cc1ccc(F)cc1)C(=O)N1C[C@@]2(C[C@H]1C#N)Oc1cccnc1NC2=O [Compound 181]" tested_system="SARS-Cov-2 3CLpro (Severe acute respiratory syndrome coronavirus 2)" result="> 7.70"
molecule="CN(C(=O)c1cc2cccc(Cl)c2[nH]1)[C@@H](CC1CC1)C(=O)N1C[C@@]2(C[C@H]1C#N)Oc1cc(F)cc(F)c1NC2=O [Compound 133]" tested_system="SARS-Cov-2 3CLpro (Severe acute respiratory syndrome coronavirus 2)" result="> 7.70"
molecule="CN(C(=O)[C@@H](Cc1ccc(F)cc1)NC(=O)C(F)(F)F)[C@@H](CC1CC1)C(=O)N1C[C@@]2(C[C@H]1C#N)Oc1cccnc1NC2=O [Compound 200]" tested_system="SARS-Cov-2 3CLpro (Severe acute respiratory syndrome coronavirus 2)" result="> 7.70"
molecule="Cc1cn([C@@H](CC2CC2)C(=O)N(C)[C@@H](CC2CC2)C(=O)N2C[C@@]3(C[C@H]2C#N)Oc2cc(F)cc(F)c2NC3=O)nn1 [Compound 146]" tested_system="SARS-Cov-2 3CLpro (Severe acute respiratory syndrome coronavirus 2)" result="> 7.70"
molecule="CCC1C[C@@]2(C[C@@H](C#N)N(C(=O)[C@H](CC(C)C)N(C)C(=O)[C@H](C)NC(=O)C(F)(F)F)C2)C(=O)N1 (some centres unmarked) [Compound 23]" tested_system="SARS-Cov-2 3CLpro (Severe acute respiratory syndrome coronavirus 2)" result="> 7.70"
